Attribution: the supplement of paper PMC12042874

assay: amyloid nucleation score (Sup35N fusion, yeast selection) (log enrichment); library NNK2; higher = more nucleation; inactive = no reads after selection;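 note: zero at mode of non-aggregating sequences after 7 days selection at 30°C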
Our labelling divides records by amyloid nucleation score into ranges: low: < -0.4; mid: ≥ -0.4 and < 1; high: ≥ 1

| Substance | Class Label |
| --- | --- |
| YSFFCSMILYPIHDNVGWSF | high |
| IRFTKYNDGCILIMPRDVQV | low |
| KDYSGGIRHPVVPSGMISYL | low |
| VIKGIEGVHGEKHVVYKVIC | high |
| CDVLRY | low |
| FMEYCSVLLFCLVMARLSGS | mid |
| PMLEFWFMAWIEMFTYKKCC | high |
| KLIYLGGSSEFGTHFSA | low |
| IRCQSVRDIGLYFDLDWVEK | high |
| QICHHIDYVFRCHDI | mid |
| YNYLCWNRKKGANRTCVSGR | low |
| LIEAESSDRGPYVPNQCGWN | high |
| IYIMVTVF | mid |
| LQSKAGEPLGRDMRLFLVPV | mid |
| QFHFWMQRMMFPLEFVIWVW | high |
